experiment: Selectivity index, ratio of CC50 for dog MDCK cells to IC50 for influenza A virus A/Duck/Guangdong/99(H5N1); format: toxicity; conditions: read-out: Ratio CC50/IC50
value type: selectivity ratio

[[record]]
smiles_structure = "C[C@H]1[C@H](C)CC[C@]2(C(=O)Nc3ccc(OC(F)(F)F)cc3)CC[C@]3(C)C(=CC[C@@H]4[C@@]5(C)CC[C@H](O[C@@H]6O[C@H](CO)[C@@H](O[C@@H]7O[C@@H](C)[C@H](O)[C@@H](O)[C@H]7O)[C@H](O)[C@H]6O[C@@H]6O[C@@H](C)[C@H](O)[C@@H](O)[C@H]6O)C(C)(C)[C@@H]5CC[C@]43C)[C@H]12"
value_type = "selectivity ratio"
comparison_operator = "="
measured_value = 52.6

[[record]]
smiles_structure = "C[C@H]1[C@H](C)CC[C@]2(C(=O)Nc3ccccc3)CC[C@]3(C)C(=CC[C@@H]4[C@@]5(C)CC[C@H](O[C@@H]6O[C@H](CO)[C@@H](O[C@@H]7O[C@@H](C)[C@H](O)[C@@H](O)[C@H]7O)[C@H](O)[C@H]6O[C@@H]6O[C@@H](C)[C@H](O)[C@@H](O)[C@H]6O)C(C)(C)[C@@H]5CC[C@]43C)[C@H]12"
value_type = "selectivity ratio"
comparison_operator = ">"
measured_value = 171

[[record]]
smiles_structure = "C[C@H]1[C@H](C)CC[C@]2(C(=O)O)CC[C@]3(C)C(=CC[C@@H]4[C@@]5(C)CC[C@H](O[C@@H]6O[C@H](CO)[C@@H](O[C@@H]7O[C@@H](C)[C@H](O)[C@@H](O)[C@H]7O)[C@H](O)[C@H]6O[C@@H]6O[C@@H](C)[C@H](O)[C@@H](O)[C@H]6O)C(C)(C)[C@@H]5CC[C@]43C)[C@H]12"
value_type = "selectivity ratio"
comparison_operator = "="
measured_value = 1.5

[[record]]
smiles_structure = "C[C@H]1[C@H](C)CC[C@]2(C(=O)N3CCCC3)CC[C@]3(C)C(=CC[C@@H]4[C@@]5(C)CC[C@H](O[C@@H]6O[C@H](CO)[C@@H](O[C@@H]7O[C@@H](C)[C@H](O)[C@@H](O)[C@H]7O)[C@H](O)[C@H]6O[C@@H]6O[C@@H](C)[C@H](O)[C@@H](O)[C@H]6O)C(C)(C)[C@@H]5CC[C@]43C)[C@H]12"
value_type = "selectivity ratio"
comparison_operator = "="
measured_value = 13

[[record]]
smiles_structure = "COc1cccc(NC(=O)[C@]23CC[C@@H](C)[C@H](C)[C@H]2C2=CC[C@@H]4[C@@]5(C)CC[C@H](O[C@@H]6O[C@H](CO)[C@@H](O[C@@H]7O[C@@H](C)[C@H](O)[C@@H](O)[C@H]7O)[C@H](O)[C@H]6O[C@@H]6O[C@@H](C)[C@H](O)[C@@H](O)[C@H]6O)C(C)(C)[C@@H]5CC[C@@]4(C)[C@]2(C)CC3)c1"
value_type = "selectivity ratio"
comparison_operator = ">"
measured_value = 113

[[record]]
smiles_structure = "CNC(=O)[C@]12CC[C@@H](C)[C@H](C)[C@H]1C1=CC[C@@H]3[C@@]4(C)CC[C@H](O[C@@H]5O[C@H](CO)[C@@H](O[C@@H]6O[C@@H](C)[C@H](O)[C@@H](O)[C@H]6O)[C@H](O)[C@H]5O[C@@H]5O[C@@H](C)[C@H](O)[C@@H](O)[C@H]5O)C(C)(C)[C@@H]4CC[C@@]3(C)[C@]1(C)CC2"
value_type = "selectivity ratio"
comparison_operator = "="
measured_value = 60.7

[[record]]
smiles_structure = "C[C@H]1[C@H](C)CC[C@]2(C(=O)Nc3ccc(F)cc3)CC[C@]3(C)C(=CC[C@@H]4[C@@]5(C)CC[C@H](O[C@@H]6O[C@H](CO)[C@@H](O[C@@H]7O[C@@H](C)[C@H](O)[C@@H](O)[C@H]7O)[C@H](O)[C@H]6O[C@@H]6O[C@@H](C)[C@H](O)[C@@H](O)[C@H]6O)C(C)(C)[C@@H]5CC[C@]43C)[C@H]12"
value_type = "selectivity ratio"
comparison_operator = ">"
measured_value = 189

[[record]]
smiles_structure = "C[C@H]1[C@H](C)CC[C@]2(C(=O)NCc3ccccc3)CC[C@]3(C)C(=CC[C@@H]4[C@@]5(C)CC[C@H](O[C@@H]6O[C@H](CO)[C@@H](O[C@@H]7O[C@@H](C)[C@H](O)[C@@H](O)[C@H]7O)[C@H](O)[C@H]6O[C@@H]6O[C@@H](C)[C@H](O)[C@@H](O)[C@H]6O)C(C)(C)[C@@H]5CC[C@]43C)[C@H]12"
value_type = "selectivity ratio"
comparison_operator = "="
measured_value = 13.2

[[record]]
smiles_structure = "COc1ccccc1NC(=O)[C@]12CC[C@@H](C)[C@H](C)[C@H]1C1=CC[C@@H]3[C@@]4(C)CC[C@H](O[C@@H]5O[C@H](CO)[C@@H](O[C@@H]6O[C@@H](C)[C@H](O)[C@@H](O)[C@H]6O)[C@H](O)[C@H]5O[C@@H]5O[C@@H](C)[C@H](O)[C@@H](O)[C@H]5O)C(C)(C)[C@@H]4CC[C@@]3(C)[C@]1(C)CC2"
value_type = "selectivity ratio"
comparison_operator = ">"
measured_value = 952

[[record]]
smiles_structure = "COc1ccc(CNC(=O)[C@]23CC[C@@H](C)[C@H](C)[C@H]2C2=CC[C@@H]4[C@@]5(C)CC[C@H](O[C@@H]6O[C@H](CO)[C@@H](O[C@@H]7O[C@@H](C)[C@H](O)[C@@H](O)[C@H]7O)[C@H](O)[C@H]6O[C@@H]6O[C@@H](C)[C@H](O)[C@@H](O)[C@H]6O)C(C)(C)[C@@H]5CC[C@@]4(C)[C@]2(C)CC3)cc1"
value_type = "selectivity ratio"
comparison_operator = "="
measured_value = 11.5

[[record]]
smiles_structure = "C[C@H]1[C@H](C)CC[C@]2(C(=O)Nc3ccccc3Cl)CC[C@]3(C)C(=CC[C@@H]4[C@@]5(C)CC[C@H](O[C@@H]6O[C@H](CO)[C@@H](O[C@@H]7O[C@@H](C)[C@H](O)[C@@H](O)[C@H]7O)[C@H](O)[C@H]6O[C@@H]6O[C@@H](C)[C@H](O)[C@@H](O)[C@H]6O)C(C)(C)[C@@H]5CC[C@]43C)[C@H]12"
value_type = "selectivity ratio"
comparison_operator = "="
measured_value = 103

